Source: ChEMBL document CHEMBL2046282

Target: Tyrosine-protein kinase Lck (Homo sapiens, UniProt P06239)
Sequence (P06239 whole entry): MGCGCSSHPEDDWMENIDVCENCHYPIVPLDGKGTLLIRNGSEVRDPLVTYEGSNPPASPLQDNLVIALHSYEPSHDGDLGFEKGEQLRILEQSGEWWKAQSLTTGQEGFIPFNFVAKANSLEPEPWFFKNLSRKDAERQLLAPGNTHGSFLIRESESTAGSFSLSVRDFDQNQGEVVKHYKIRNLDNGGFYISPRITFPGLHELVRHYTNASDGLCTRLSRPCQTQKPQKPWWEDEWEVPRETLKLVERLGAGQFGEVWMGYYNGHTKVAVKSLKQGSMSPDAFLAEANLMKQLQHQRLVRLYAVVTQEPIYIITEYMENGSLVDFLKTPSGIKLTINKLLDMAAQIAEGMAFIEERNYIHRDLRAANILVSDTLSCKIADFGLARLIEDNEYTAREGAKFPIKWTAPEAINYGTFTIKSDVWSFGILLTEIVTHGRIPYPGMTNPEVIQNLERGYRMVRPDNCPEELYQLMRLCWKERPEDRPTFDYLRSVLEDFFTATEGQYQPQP
quantity: IC50

IC50 recorded for this compound, CC(C)C[C@H]1CN(c2ccc(C(F)(F)F)c(C(=O)c3cccnc3N)n2)CCN1 , is > 2000 nM

====

Molecular target: Phosphatidylinositol 4,5-bisphosphate 3-kinase catalytic subunit alpha isoform (Homo sapiens)
Sequence (P42336 whole entry, canonical isoform): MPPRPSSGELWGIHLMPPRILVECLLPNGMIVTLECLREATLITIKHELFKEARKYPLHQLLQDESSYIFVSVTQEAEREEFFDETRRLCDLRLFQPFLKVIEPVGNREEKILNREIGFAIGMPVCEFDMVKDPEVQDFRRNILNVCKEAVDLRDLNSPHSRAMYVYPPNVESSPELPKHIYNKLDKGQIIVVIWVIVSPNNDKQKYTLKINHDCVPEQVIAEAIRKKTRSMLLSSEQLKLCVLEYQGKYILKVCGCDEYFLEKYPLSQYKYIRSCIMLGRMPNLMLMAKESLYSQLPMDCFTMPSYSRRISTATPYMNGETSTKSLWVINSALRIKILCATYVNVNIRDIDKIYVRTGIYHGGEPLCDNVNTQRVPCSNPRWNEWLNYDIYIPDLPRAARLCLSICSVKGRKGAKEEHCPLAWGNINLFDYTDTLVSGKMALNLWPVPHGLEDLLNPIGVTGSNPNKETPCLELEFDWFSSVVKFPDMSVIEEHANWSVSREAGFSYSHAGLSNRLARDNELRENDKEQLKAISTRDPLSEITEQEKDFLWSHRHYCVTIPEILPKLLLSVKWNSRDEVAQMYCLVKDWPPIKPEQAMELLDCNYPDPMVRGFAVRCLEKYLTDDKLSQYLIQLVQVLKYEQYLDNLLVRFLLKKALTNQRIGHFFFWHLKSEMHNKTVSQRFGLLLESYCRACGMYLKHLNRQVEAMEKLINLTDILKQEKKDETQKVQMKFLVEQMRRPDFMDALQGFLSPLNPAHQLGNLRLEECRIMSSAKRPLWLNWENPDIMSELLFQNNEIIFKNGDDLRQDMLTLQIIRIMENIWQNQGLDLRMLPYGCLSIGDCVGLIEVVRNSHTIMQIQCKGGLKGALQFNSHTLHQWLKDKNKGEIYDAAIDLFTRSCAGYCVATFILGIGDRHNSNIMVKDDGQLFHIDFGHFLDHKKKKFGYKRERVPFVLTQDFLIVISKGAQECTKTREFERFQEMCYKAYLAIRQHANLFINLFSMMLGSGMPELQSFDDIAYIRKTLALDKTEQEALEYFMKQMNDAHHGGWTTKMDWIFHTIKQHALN
Test: Inhibition of PI3Kalpha
pKi: −log10 of the molar value.
quantity: pKi

CC(C)C[C@H]1CN(c2ccc(C(F)(F)F)c(C(=O)c3cccnc3N)n2)CCN1 yielded pKi of < 5.40

====

Biological target: UniProtKB P24941
pKi: −log10 of the molar value.
quantity: pKi

CC(C)C[C@H]1CN(c2ccc(C(F)(F)F)c(C(=O)c3cccnc3N)n2)CCN1 tested on UniProtKB P24941 gave pKi: < 5.40
